Tested on: S. enterica typhimurium tolC KO
protocol details: growth AUC normalised to DMSO control (median) (fraction of control); higher = less growth inhibition, active = hit call of the paper;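 note: active when median AUC fell below 0.1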
measurement parameters: 20 µM
Counter-ions that a name gives are not always drawn.

>  <compound>
CN(C)[C@@H]1C(=O)C(C(N)=O)=C(O)[C@@]2(O)C(=O)C3=C(O)c4c(O)cccc4[C@@](C)(O)[C@H]3[C@H](O)[C@@H]12 [Oxytetracycline dihydrate]

>  <experimental system>
S. enterica typhimurium tolC KO

>  <growth AUC normalised to DMSO control>
0.00753

$$$$
>  <compound>
COc1cc2c(c(OC)c1OC)-c1ccc(OC)c(=O)cc1[C@@H](NC(C)=O)CC2

>  <experimental system>
S. enterica typhimurium tolC KO

>  <growth AUC normalised to DMSO control>
1.01

$$$$
>  <compound>
CNCC(O)c1ccc(O)cc1 (stereo unspecified) [Synephrine]

>  <experimental system>
S. enterica typhimurium tolC KO

>  <growth AUC normalised to DMSO control>
0.999

$$$$
>  <compound>
CCNCC(O)c1cccc(O)c1 (stereo unspecified) [Etilefrine hydrochloride]

>  <experimental system>
S. enterica typhimurium tolC KO

>  <growth AUC normalised to DMSO control>
1

$$$$
>  <compound>
C=C1C[C@@H]2[C@H](CC[C@]3(C)C(=O)CC[C@@H]23)[C@@]2(C)C=CC(=O)C=C12

>  <experimental system>
S. enterica typhimurium tolC KO

>  <growth AUC normalised to DMSO control>
0.935

$$$$
>  <compound>
COc1ccc(OC)c(C(O)C(C)N)c1 (stereo unspecified) [Methoxamine hydrochloride]

>  <experimental system>
S. enterica typhimurium tolC KO

>  <growth AUC normalised to DMSO control>
0.999

$$$$
>  <compound>
CNC(C)(C)Cc1ccccc1 [Mephentermine hemisulfate]

>  <experimental system>
S. enterica typhimurium tolC KO

>  <growth AUC normalised to DMSO control>
0.994

$$$$
>  <compound>
CN(C)C(=O)Oc1ccc[n+](C)c1 [Pyridostigmine iodide]

>  <experimental system>
S. enterica typhimurium tolC KO

>  <growth AUC normalised to DMSO control>
0.991

$$$$
>  <compound>
Cc1cccc(C)c1NC(=O)CN1CCCC1=O

>  <experimental system>
S. enterica typhimurium tolC KO

>  <growth AUC normalised to DMSO control>
1

$$$$
>  <compound>
C[C@]12C/C(=C/O)C(=O)C[C@@H]1CC[C@@H]1[C@@H]2CC[C@@]2(C)[C@H]1CC[C@]2(C)O

>  <experimental system>
S. enterica typhimurium tolC KO

>  <growth AUC normalised to DMSO control>
0.956

$$$$
>  <compound>
Fc1ccc(C(OCCN2CCN(CCCc3ccccc3)CC2)c2ccc(F)cc2)cc1

>  <experimental system>
S. enterica typhimurium tolC KO

>  <growth AUC normalised to DMSO control>
0.914

$$$$
>  <compound>
CC(N)C(O)c1ccccc1 (stereo unspecified) [Phenylpropanolamine hydrochloride]

>  <experimental system>
S. enterica typhimurium tolC KO

>  <growth AUC normalised to DMSO control>
1.01

$$$$
>  <compound>
CCN[C@@H](C)Cc1cccc(C(F)(F)F)c1 [Dexfenfluramine hydrochloride]

>  <experimental system>
S. enterica typhimurium tolC KO

>  <growth AUC normalised to DMSO control>
1

$$$$
>  <compound>
CC(Cc1ccccc1)NCCC(c1ccccc1)c1ccccc1 (stereo unspecified) [Prenylamine lactate]

>  <experimental system>
S. enterica typhimurium tolC KO

>  <growth AUC normalised to DMSO control>
0.97

$$$$
>  <compound>
C[C@]12C=CC(=O)C=C1CC[C@@H]1[C@@H]2CC[C@@]2(C)[C@H]1CC[C@]2(C)O

>  <experimental system>
S. enterica typhimurium tolC KO

>  <growth AUC normalised to DMSO control>
0.982

$$$$
>  <compound>
CC(C)C[C@H](CN)CC(=O)O

>  <experimental system>
S. enterica typhimurium tolC KO

>  <growth AUC normalised to DMSO control>
0.989

$$$$
>  <compound>
C[C@@H]1CC[C@H]2[C@@H](C)C(=O)O[C@@H]3O[C@@]4(C)CC[C@@H]1[C@]32OO4

>  <experimental system>
S. enterica typhimurium tolC KO

>  <growth AUC normalised to DMSO control>
0.998

$$$$
>  <compound>
C#CCN(C)[C@H](C)Cc1ccccc1 [Selegiline hydrochloride]

>  <experimental system>
S. enterica typhimurium tolC KO

>  <growth AUC normalised to DMSO control>
1.01

$$$$
>  <compound>
CNC(=O)Oc1ccc2c(c1)[C@]1(C)CCN(C)[C@@H]1N2C [Eserine hemisulfate salt]

>  <experimental system>
S. enterica typhimurium tolC KO

>  <growth AUC normalised to DMSO control>
0.993

$$$$
>  <compound>
O=C1CC[C@@]2(O)[C@H]3Cc4ccc(O)c5c4[C@@]2(CCN3CC2CC2)[C@H]1O5 [Naltrexone hydrochloride dihydrate]

>  <experimental system>
S. enterica typhimurium tolC KO

>  <growth AUC normalised to DMSO control>
0.998

$$$$
>  <compound>
O=C(O[C@H]1C[N+]2(CCCOc3ccccc3)CCC1CC2)C(O)(c1cccs1)c1cccs1 [Aclidinium bromide]

>  <experimental system>
S. enterica typhimurium tolC KO

>  <growth AUC normalised to DMSO control>
1

$$$$
>  <compound>
CO[C@]12C[C@@H](COC(=O)c3cncc(Br)c3)CN(C)[C@@H]1Cc1cn(C)c3cccc2c13

>  <experimental system>
S. enterica typhimurium tolC KO

>  <growth AUC normalised to DMSO control>
0.942

$$$$
>  <compound>
CC(Cc1ccc(O)cc1)NCC(O)c1cc(O)cc(O)c1 (stereo unspecified) [Fenoterol hydrobromide]

>  <experimental system>
S. enterica typhimurium tolC KO

>  <growth AUC normalised to DMSO control>
1

$$$$
>  <compound>
C[C@]12CC[C@H]3[C@@H](CCC4=CC(=O)CC[C@@H]43)[C@@H]1CC[C@@H]2O

>  <experimental system>
S. enterica typhimurium tolC KO

>  <growth AUC normalised to DMSO control>
0.981

$$$$
>  <compound>
CC(=O)O[C@H]1C[C@H](O[C@H]2[C@@H](O)C[C@H](O[C@H]3[C@@H](O)C[C@H](O[C@H]4CC[C@@]5(C)[C@H](CC[C@@H]6[C@@H]5C[C@@H](O)[C@]5(C)[C@@H](C7=CC(=O)OC7)CC[C@]65O)C4)O[C@@H]3C)O[C@@H]2C)O[C@H](C)[C@H]1O[C@@H]1O[C@H](CO)[C@@H](O)[C@H](O)[C@H]1O [Lanatoside C]

>  <experimental system>
S. enterica typhimurium tolC KO

>  <growth AUC normalised to DMSO control>
0.997

$$$$
>  <compound>
CCCC(C)C1(CC)C(=O)NC(=O)NC1=O (stereo unspecified)

>  <experimental system>
S. enterica typhimurium tolC KO

>  <growth AUC normalised to DMSO control>
0.999

$$$$
>  <compound>
CC(C)c1c(CN(C)C(C)Cc2ccccc2)n(C)n(-c2ccccc2)c1=O (stereo unspecified)

>  <experimental system>
S. enterica typhimurium tolC KO

>  <growth AUC normalised to DMSO control>
0.871

$$$$
>  <compound>
CC(NC(C)(C)C)C(=O)c1cccc(Cl)c1 (stereo unspecified) [Bupropion hydrochloride]

>  <experimental system>
S. enterica typhimurium tolC KO

>  <growth AUC normalised to DMSO control>
1

$$$$
>  <compound>
CC(=O)O[C@H]1C[C@@H]2CC[C@@H]3[C@H](CC[C@@]4(C)[C@H]3C[C@H]([N+]3(C)CCCCC3)[C@@H]4OC(C)=O)[C@@]2(C)C[C@@H]1[N+]1(C)CCCCC1 [Pancuronium bromide]

>  <experimental system>
S. enterica typhimurium tolC KO

>  <growth AUC normalised to DMSO control>
1.01

$$$$
>  <compound>
COc1ccc(CCN2CCC(Nc3nc4ccccc4n3Cc3ccc(F)cc3)CC2)cc1

>  <experimental system>
S. enterica typhimurium tolC KO

>  <growth AUC normalised to DMSO control>
0.962

$$$$
>  <compound>
C[C@]12CC[C@H](O)C[C@@H]1CC[C@@H]1[C@@H]2CC[C@]2(C)C(=O)CC[C@@H]12 [Epiandrosterone]

>  <experimental system>
S. enterica typhimurium tolC KO

>  <growth AUC normalised to DMSO control>
0.951

$$$$

---

Test system: P. vulgatus RND KO
protocol details: growth AUC normalised to DMSO control (median) (fraction of control); higher = less growth inhibition, active = hit call of the paper
measurement parameters: 20 µM
Structures can show the parent of a compound that is named as a salt.
Property: growth AUC normalised to DMSO control; scope: individual compounds

>  <compound>
CN1C(=O)COc2c(C(=O)NC3CN4CCC3CC4)cc(Cl)cc21 (stereo not drawn) [Azasetron hydrochloride]

>  <growth AUC normalised to DMSO control>
1.02

$$$$
>  <compound>
C[C@]12CC[C@H](O)C[C@H]1CC[C@@H]1[C@@H]2CC[C@]2(C)[C@@H](C3=CC(=O)OC3)CC[C@]12O [Digitoxigenin]

>  <growth AUC normalised to DMSO control>
0.989

$$$$
>  <compound>
C[N+]1([O-])[C@@H]2C[C@@H](OC(=O)[C@H](CO)c3ccccc3)C[C@H]1[C@@H]1O[C@@H]12 (stereo partly drawn) [Scopolamin-N-oxide hydrobromide]

>  <growth AUC normalised to DMSO control>
1.04

$$$$
>  <compound>
CO[C@]12C[C@@H](COC(=O)c3cncc(Br)c3)CN(C)[C@@H]1Cc1cn(C)c3cccc2c13 [Nicergoline]

>  <growth AUC normalised to DMSO control>
0.933

$$$$
>  <compound>
Nc1nc(N)nc(NC2CC2)n1 [Cyromazine]

>  <growth AUC normalised to DMSO control>
0.998

$$$$
>  <compound>
CCN(C(C)=O)c1cccc(-c2ccnc3c(C#N)cnn23)c1 [Zaleplon]

>  <growth AUC normalised to DMSO control>
1

$$$$
>  <compound>
COc1ccc(CN2CCNCC2)c(OC)c1OC [Trimetazidine dihydrochloride]

>  <growth AUC normalised to DMSO control>
1.01

$$$$
>  <compound>
C=C1C[C@@H]2[C@H](CC[C@]3(C)C(=O)CC[C@@H]23)[C@@]2(C)C=CC(=O)C=C12 [Exemestane]

>  <growth AUC normalised to DMSO control>
0.978

$$$$
